Test: Tmax in BALB/c mouse brain at 250 mg/kg, IG measured at 0.5 to 24 hrs by HPLC-MS analysis
Assay type: ADME, organism-based
Settings: po, time 0.5-24 hrs

compound-smiles | Tmax, h
N#C/C=C/c1ccc2c(S(=O)(=O)n3nc(Nc4ccc(C#N)c(Cl)c4)nc3N)cccc2c1 | 2

* * *

Test system: Human immunodeficiency virus 1
Assay: Antiviral activity against HIV1 harboring Y181C mutant infected in human TZM-bl cells
Type: functional, organism-based
Details: Human immunodeficiency virus 1, TZM-bl
// values below are reported IC50

compound-smiles | experimental-target | IC50
N#Cc1ccc2c(S(=O)(=O)n3nc(Nc4ccc(C#N)c(C#N)c4)nc3N)cccc2c1 | Human immunodeficiency virus 1 | 3.7 nM
N#C/C=C/c1ccc2c(S(=O)(=O)n3nc(Nc4ccc(C#N)c(Cl)c4)nc3N)cccc2c1 | Human immunodeficiency virus 1 | 3.7 nM
N#Cc1ccc(Nc2nc(N)n(S(=O)(=O)c3cccc4cc(C#N)ccc34)n2)cc1 | Human immunodeficiency virus 1 | 18 nM
Cc1cc(/C=C/C#N)cc(C)c1Nc1ccnc(Nc2ccc(C#N)cc2)n1 | Human immunodeficiency virus 1 | 1.3 nM
